# target-or-test-system: P3-7
# method-notes: BLI
Ends that are not written are not given here.
value-kind: Kd
Reply with the number, then its unit.

Lookup result for NPDPNANPNVDPNAN (also: biotinylated, position not given here) [Biotinylated junctional peptide Pep21 (PfCSP peptide 21)] ; measured Kd: 24 nM
